Data provenance: PubChem BioAssay

test: growth inhibition, single agent and combos, cell-based, chromothripsis tumors, cisplatin or BGB combos (AID 1671450); conditions: HDN33 neuroblastoma cells, at 0.5 µM;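 further: cells exposed to compound for four days; 0% = vehicle DMSO and 100% = cell killing by high DMSO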
Active and inactive are the calls of the source. No stated cut-off is given here; in the data, active means inhibition above about 80%; inactive means the rest.
Can you answer with just one of these options? t for active, f for inactive

Worked examples follow.
- CO[C@H]1/C=C/O[C@@]2(C)Oc3c(C)c(O)c4c(O)c(c(/C=N\N5CCN(C6CCCC6)CC5)c(O)c4c3C2=O)NC(=O)/C(C)=C\C=C\[C@H](C)[C@H](O)[C@@H](C)[C@@H](O)[C@@H](C)[C@H](OC(C)=O)[C@@H]1C: f
- CN(C)C/C=C/C(=O)Nc1ccc(C(=O)Nc2cccc(Nc3ncc(Cl)c(-c4c[nH]c5ccccc45)n3)c2)cc1: f
- NC1CCC(N[C@@H]2C[C@H]2c2ccccc2)CC1 (some centres undefined): f
- CC(=O)[C@]1(N)Cc2c(O)c3c(c(O)c2[C@@H](O[C@H]2C[C@H](O)[C@H](O)CO2)C1)C(=O)c1ccccc1C3=O: f

Request: How did this test come out for Nc1ccccc1NC(=O)c1ccc(CNc2nccc(-c3cccnc3)n2)cc1 ?
Response: f

Request: Next compound: COc1ccc(C(=O)C2CCN(CC(=O)N(Cc3nc4c(c(=O)[nH]3)COCC4)CC3CC3)CC2)cc1
Response: f

Request: Follow-up entry: C=C1[C@H](CO)[C@@H](O)C[C@@H]1n1cnc2c(=O)[nH]c(N)nc21
Response: f

====

Each record here notes measured inhibition.
assay: growth inhibition, single agent and combos, cell-based, chromothripsis tumors, cisplatin or BGB combos (AID 1671450); details: HDN33 neuroblastoma cells, measured here: with BGB IC20 combination, at 0.5 µM, stronger effect = higher value;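 further: cells exposed to compound for four days; 0% = vehicle DMSO and 100% = cell killing by high DMSO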
Write it as a number; the unit % goes unstated.

Request: Return reported inhibition; argument: O=c1cc(N2CCOCC2)oc2c1ccc1ccccc12
Response: -2.44

Request: Next record, please: O=c1cc(N2CCOCC2)oc2c(-c3cccc4c3sc3ccccc34)cccc12
Response: -33.3

Request: Entry Nc1nc(OCc2cc(Br)cs2)c2[nH]cnc2n1 please
Response: -15.1

Request: Another compound to check: NC(=O)c1nc(F)c[nH]c1=O
Response: -3.64

Request: Subsequent entry: CN(C)Cc1c(C(=O)NCCOc2ccc(C(=O)NO)cc2)oc2ccccc12
Response: 69

====

test: viability loss in pontine glioma line – cell-based, SU-DIPG-XIII, MIPE5.0, CellTiter-Glo, qHTS, dose response (AID 1347064); settings: CellTiter-Glo ATP luminescence;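 on AC50: cells exposed to compound for 48 hours before the viability read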
Inconclusive results are not listed. Active and inactive are the calls of the source. Cut-off not given; nearly all actives show AC50 up to about 23 µM.
Parameter call: string, one of active, inactive

- COc1ccc(-c2cc3nccn3c(Nc3ncccc3C(N)=O)n2)cc1OC: active
- COCCOc1nc(-c2ccc(Cl)c(Cl)c2)n(-c2ccc(NC(=O)CCl)cc2)n1: active
- c1cc(N[C@@H]2CCNC2)nc(-c2cnc3ccc(-c4cn[nH]c4)cn23)c1: active
- Nc1ccccc1NC(=O)c1ccc(CNC(=O)OCc2cccnc2)cc1: active
- O=C(NOCC(O)CO)c1ccc(F)c(F)c1Nc1ccc(I)cc1F (centres undefined): active

For the next question, use this molecule.
Request: Recorded test call requested for CC(C)CNc1ccnc(NCc2csc(-c3ccccc3)n2)n1
Response: active

====

experiment: viability loss in pontine glioma line – cell-based, SU-DIPG-XIII, MIPE5.0, CellTiter-Glo, qHTS, dose response (AID 1347064); conditions: CellTiter-Glo ATP luminescence;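 on AC50: cells exposed to compound for 48 hours before the viability read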
Records with an inconclusive call do not appear. Activity calls are given as the source filed them. Cut-off not given; nearly all actives show AC50 up to about 23 µM.
Write down one outcome, taken from active, inactive

- Cc1ccc(CN2CCNCC2)cc1NC(=O)CNc1ccc(F)c(F)c1: inactive

Request: Please share the test call associated with Cc1nc(NC(=O)N2CCC[C@H]2C(N)=O)sc1-c1ccnc(C(C)(C)C(F)(F)F)c1 .
Response: active

Request: Field entry: NS(=O)(=O)NCCNc1nonc1C(=Nc1ccc(F)c(Br)c1)NO
Response: inactive

Request: Try the molecule CC(C)c1nn(-c2c(Cl)cccc2Cl)c2nc(Cc3ccc(OCCO)cc3)[nH]c(=O)c12
Response: active

Request: Okay, and O=C(Nc1cc(Oc2cc(F)c(NC(=O)C3(C(=O)Nc4ccc(F)cc4)CC3)cc2F)ccn1)C1CC1 ?
Response: active

====

assay: drug combination growth inhibition, ovarian cancer – cell-based, oncology-focused library, rucaparib conditional, profiling panel (AID 1508598); conditions: patient-derived ovarian cancer cells, CellTiter-Glo viability, 144 h; at 0.0195 µM; OCI-C5x cells; without rucaparib; stronger effect = lower value
measurement type: viability (%)
Unit % implied. Number only.

The examples below pair each entry with its known result.
* NC(=O)c1ccc(I)c([N+](=O)[O-])c1 | 126
* Cc1cc(CS(=O)(=O)c2ccccc2)cc(OCc2ccc(CN3CCC[C@@H]3CO)cc2)c1 | 116
* COc1cc2c(Oc3ccc4[nH]c(C)cc4c3F)ncnc2cc1OCCCN1CCCC1 | 96.3
* C#CC[C@H](c1nc2cc(Cl)ccc2c(=O)n1Nc1ccccc1)N(CCCN)C(=O)c1cccc(Cl)c1F | 112
* Cn1cnc(=N)c2[nH]cnc21 | 112

Request: What value of viability has been recorded for this entry: CC(=O)c1c(C)c2cnc(Nc3ccc(N4CCNCC4)cn3)nc2n(C2CCCC2)c1=O
Response: 116

====

Measured inhibition, listed per entry for reference.
test: BT084 cell growth, single and combined drugs, ICGC_MB145, cisplatin and BGB IC40 combos (AID 1671461); details: BT084 medulloblastoma cells, drug combinations, single agent, at 5 µM, stronger effect = higher value;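 further: cells exposed to drugs for 96 hours; 0% = vehicle DMSO and 100% = high DMSO full killing control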
Enter the number, and then the unit.

Guide cases for inhibition, answers given:
• NC1CCC(N[C@@H]2C[C@H]2c2ccccc2)CC1 (stereo not given in full) = 3.43%
• CC(C)OC(=O)[C@H](C)N[P@](=O)(OC[C@H]1O[C@@H](n2ccc(=O)[nH]c2=O)[C@](C)(F)[C@@H]1O)Oc1ccccc1 = 12.2%
• CN(C)CCN1C(=O)c2cccc3cc(N)cc(c23)C1=O = -40.8%

Request: Reported inhibition, compound CS(=O)(=O)c1ccc(-c2nnc(/C=C/c3nnc(-c4ccc(C#N)cc4)o3)n2-c2ccccc2Cl)nc1 : ____
Response: -30%

Request: Would you kindly repeat that for O=c1cc(N2CCOCC2)oc2c1ccc1ccccc12 ?
Response: 2.3%

Request: And then C=C1[C@H](CO)[C@@H](O)C[C@@H]1n1cnc2c(=O)[nH]c(N)nc21 , what is it?
Response: 6.8%

Request: What do you have for c1cc(Nc2cc(C3CC3)[nH]n2)nc(Nc2ccc3nc[nH]c3c2)n1 ?
Response: 22.9%

Request: What do you have for CC(=O)[C@]1(N)Cc2c(O)c3c(c(O)c2[C@@H](O[C@H]2C[C@H](O)[C@H](O)CO2)C1)C(=O)c1ccccc1C3=O ?
Response: 86.5%

Request: And for O=C(COc1cccc2c(=O)[nH]ccc12)c1ccccc1 ?
Response: 2.36%

Request: Cool, now Nc1ccccc1NC(=O)c1ccc(CNc2nccc(-c3cccnc3)n2)cc1
Response: 99.8%

====

experiment: viability loss with induced miR-34 in A549 – imaging, A549 dox-inducible miR-34, nuclei and caspase counts, primary screen (AID 1347080); settings: A549 miR-34 inducible, Hoechst nuclei count, 48 h; measured here: relative caspase fold change +Dox/-Dox
measurement type: fold change

* CC[C@@H](C)[C@H]1O[C@]2(CC[C@@H]1C)C[C@@H]1C[C@@H](C/C=C(\C)[C@@H](O[C@H]3C[C@H](OC)[C@@H](O[C@H]4C[C@H](OC)[C@@H](O)[C@H](C)O4)[C@H](C)O3)[C@@H](C)/C=C/C=C3\CO[C@@H]4[C@H](O)C(C)=CC(C(=O)O1)[C@]34O)O2 (some centres undefined) (tested in a mixture with another compound) | 1.53
* O/N=C/c1ccc(-c2ccc(O)c(F)c2)c(Cl)c1O | 1.26

Request: Please look up its fold change: CC/C=C\C/C=C\C/C=C\C/C=C\CCCCC(=O)O
Response: 0.773

Request: Same again, this time with Nc1nc(OCc2ccccc2)c2[nH]cnc2n1
Response: 1.25

====

test: viability loss in pontine glioma line – cell-based, JHH-DIPG-1, MIPE4.0, CellTiter-Glo, qHTS, dose response (AID 1347062); conditions: JHH-DIPG-1 viability, CellTiter-Glo ATP luminescence;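 on AC50: cells exposed to compound for two days before readout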
Results filed as inconclusive are left out. The source made the active and inactive calls. The limit is not given here; nearly all actives have AC50 up to about 27 µM.
Hello, when you answer, please use one of the following outcomes: t for active, f for inactive

- N#CC1(c2cccc(C(=O)Nc3cc(Oc4ccc5nc(NC(=O)C6CC6)sc5n4)ccc3F)c2Cl)CC1: t
- c1ccc(-c2nn3c(c2-c2ccnc4cc(OCCN5CCOCC5)ccc24)CCC3)nc1: f
- CC(O)C1C(=O)N2C(C(=O)O)=C(SC3CNC(C(=O)N(C)C)C3)C(C)C12 (stereo not drawn): f
- CCNC(=O)c1noc(-c2cc(C(C)C)c(O)cc2O)c1-c1ccc(CN2CCOCC2)cc1: t

Request: Recorded call for CCN1CCC(n2cc(CNc3cc(Cl)c4ncc(C#N)c(Nc5ccc(F)c(Cl)c5)c4c3)nn2)CC1 ?
Response: t

Request: Param item: COc1cc(N2CCC(N3CCN(C)CC3)CC2)ccc1Nc1ncnc(Nc2ccccc2S(=O)(=O)C(C)C)n1
Response: t

Request: Same for Cc1ccc(Nc2cc(-c3cccc(N4C(=O)c5ccccc5C4=O)c3)ncn2)cc1NS(C)(=O)=O
Response: f

Request: What about this compound? CC(=O)N1CCN(c2ccc(OCc3nn(C)c(C)c3-c3cccc4c(CCCOc5cccc6ccccc56)c(C(=O)O)n(Cc5cccnc5)c34)cc2)CC1
Response: t

Request: Same read-out for COC1CCC(N(C(=O)C2CCC(C)CC2)c2cc(C3=CCCCC3)sc2C(=O)O)CC1 (stereo not drawn) ?
Response: f
